Target: human BACE1 (Homo sapiens)
Sequence (P56817 46-501): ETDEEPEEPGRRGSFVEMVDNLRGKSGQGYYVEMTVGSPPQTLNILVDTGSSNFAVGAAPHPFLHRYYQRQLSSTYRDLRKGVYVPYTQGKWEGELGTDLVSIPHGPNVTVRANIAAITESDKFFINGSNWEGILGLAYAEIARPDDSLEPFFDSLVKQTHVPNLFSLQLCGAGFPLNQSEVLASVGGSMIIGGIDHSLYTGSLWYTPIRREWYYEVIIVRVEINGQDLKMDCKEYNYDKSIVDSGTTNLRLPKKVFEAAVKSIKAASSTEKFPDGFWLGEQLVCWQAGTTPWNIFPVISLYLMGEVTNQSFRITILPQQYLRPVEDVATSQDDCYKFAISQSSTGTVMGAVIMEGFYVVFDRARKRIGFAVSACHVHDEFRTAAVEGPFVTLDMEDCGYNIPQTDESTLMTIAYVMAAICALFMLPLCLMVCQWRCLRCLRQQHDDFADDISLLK
Each entry below carries its recorded IC50.

Worked cases, IC50 given:
molecule | reportedProperty | experimentalValue
COc1cncc(-c2cccc(C3(c4ccsc4)N=C(N)N(C)C3=O)c2)c1 (stereo not drawn) [Example 37] | IC50 | 10 to 100 nM
CN1C(=O)C(c2cccc(-c3cncnc3)c2)(c2cnn(CC(F)(F)F)c2)N=C1N (stereo not drawn) [Example 89] | IC50 | 110 to 1000 nM
CN1C(=O)C(c2ccsc2)(c2cccc(-c3cnccn3)c2)N=C1N (stereo not drawn) [Example 33] | IC50 | 10 to 100 nM

// fetch IC50 for COC(=O)c1cc(C2(c3cccc(-c4cc(F)cc(F)c4)c3)N=C(N)N(C)C2=O)cn1CCF (stereo not drawn) [Example 193] ; system: human BACE1 (Homo sapiens)
10 to 100 nM

// fetch IC50 for CCC(=O)c1cc([C@@]2(c3cccc(-c4cc(F)cnc4F)c3)N=C(N)N(C)C2=O)cn1CCF [242 B] ; system: human BACE1 (Homo sapiens)
> 1000 nM

// fetch IC50 for CCC(=O)c1cc(C2(c3cccc(-c4ccc(F)c(Cl)c4)c3)N=C(N)N(C)C2=O)cn1CC(F)(F)F (stereo not drawn) [Example 205] ; system: human BACE1 (Homo sapiens)
10 to 100 nM
